EC50 by entry:
target under test: aromatase (Rattus norvegicus)
Construct: ovarian microsomes are obtained from rats treated with pregnant mares serum gonadotropin; from tissue; host or cells: ovarian microsomes of rats treated with pregnant mares serum gonadotropin
Sequence (P22443 1-508): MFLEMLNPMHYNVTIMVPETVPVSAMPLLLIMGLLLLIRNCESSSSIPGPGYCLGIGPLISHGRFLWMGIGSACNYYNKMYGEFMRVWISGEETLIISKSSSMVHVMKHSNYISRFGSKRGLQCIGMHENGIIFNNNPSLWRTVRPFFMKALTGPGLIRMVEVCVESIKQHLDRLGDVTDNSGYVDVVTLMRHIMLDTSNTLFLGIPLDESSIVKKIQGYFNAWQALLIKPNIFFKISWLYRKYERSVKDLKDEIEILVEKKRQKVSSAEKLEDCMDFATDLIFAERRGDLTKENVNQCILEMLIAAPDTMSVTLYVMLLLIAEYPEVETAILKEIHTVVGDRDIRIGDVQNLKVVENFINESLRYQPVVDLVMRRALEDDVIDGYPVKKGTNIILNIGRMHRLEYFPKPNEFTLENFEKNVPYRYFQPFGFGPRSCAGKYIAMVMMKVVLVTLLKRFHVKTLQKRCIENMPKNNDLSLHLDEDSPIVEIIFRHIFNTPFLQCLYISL
assay text: Aromatase inhibition in the rat ovarian microsome assay
Type: biochemical
settings: EC50: concentration required to achieve 50% inhibition of aromatase activity, substrate (androstenedione) concentration 0.1 μM
Where a name gives a salt, the structure may show the parent alone.

>  <compound>
Cc1nccn1C(c1ccc(Cl)cc1)(c1ccc(Cl)cc1)c1cccnc1

>  <measurement units>
µM

>  <reading qualifier>
<

>  <EC50>
0.05

$$$$
>  <compound>
COc1ccc(Cn2ccnc2)cc1 [hydrochloride]

>  <measurement units>
µM

>  <reading qualifier>
=

>  <EC50>
2.5

$$$$
>  <compound>
Clc1cccc(Cl)c1COc1ccccc1Cn1ccnc1

>  <measurement units>
µM

>  <reading qualifier>
=

>  <EC50>
0.125

$$$$
>  <compound>
c1ccc(C(c2ccccc2)(c2ccccn2)n2ccnc2)cc1

>  <measurement units>
µM

>  <reading qualifier>
<

>  <EC50>
0.05

$$$$
>  <compound>
Clc1ccc(C(c2ccccc2)n2cncn2)cc1 (stereo not drawn)

>  <measurement units>
µM

>  <reading qualifier>
=

>  <EC50>
0.15

$$$$
>  <compound>
Clc1cccc(Cl)c1Cn1ccnc1 [hydrochloride]

>  <measurement units>
µM

>  <reading qualifier>
>

>  <EC50>
5

$$$$

###

Below, each of the compounds is paired with its reported pEC50 value.
target under test: aromatase (Rattus norvegicus, UniProt P22443)
Construct: ovarian microsomes are obtained from rats treated with pregnant mares serum gonadotropin
assay text: Aromatase inhibition in the rat ovarian microsome assay
settings: EC50: concentration required to achieve 50% inhibition of aromatase activity, substrate (androstenedione) concentration 0.1 μM
pEC50: −log10 of the molar value. Structures can show the parent of a compound that is named as a salt.
measurement kind: pEC50

>  <compound>
Clc1ccccc1Cn1ccnc1 [hydrochloride]

>  <reading qualifier>
=

>  <numeric result>
5.46

$$$$
>  <compound>
Clc1ccc(C(c2cccnc2)(c2ccccc2Cl)n2ccnc2)cc1 (stereo not drawn)

>  <reading qualifier>
=

>  <numeric result>
7.07

$$$$
>  <compound>
Cc1cccc(Cn2ccnc2)c1

>  <reading qualifier>
=

>  <numeric result>
6.04

$$$$
>  <compound>
CCOc1ccccc1C(C)n1ccnc1 (stereo not drawn)

>  <reading qualifier>
>

>  <numeric result>
7.30

$$$$
>  <compound>
Cc1nccn1C(c1ccc(Cl)cc1)(c1ccc(Cl)cc1)c1ccc(Cl)cc1

>  <reading qualifier>
=

>  <numeric result>
6.57

$$$$
>  <compound>
Cc1nccn1C(c1ccccc1)(c1ccccc1)c1ccc(Cl)cc1

>  <reading qualifier>
=

>  <numeric result>
7.10

$$$$
>  <compound>
O=[N+]([O-])c1cccc(Cn2ccnc2)c1 [hydrochloride]

>  <reading qualifier>
=

>  <numeric result>
5.95

$$$$
>  <compound>
c1ccc(C(c2ccccc2)(c2cncnc2)n2cncn2)cc1

>  <reading qualifier>
=

>  <numeric result>
6.08

$$$$
>  <compound>
c1ccc(C(c2ccccc2)(c2ccncc2)n2cncn2)cc1

>  <reading qualifier>
=

>  <numeric result>
6.80

$$$$
>  <compound>
c1ccc(C(c2ccccc2)(c2ccncc2)n2ccnc2)cc1

>  <reading qualifier>
=

>  <numeric result>
7.92

$$$$
>  <compound>
CC(C)C(c1cccc2ccccc12)n1ccnc1 (stereo not drawn)

>  <reading qualifier>
=

>  <numeric result>
6.39

$$$$
>  <compound>
O=[N+]([O-])c1ccccc1Cn1ccnc1 [hydrochloride]

>  <reading qualifier>
=

>  <numeric result>
5.51

$$$$

###

Tested on: estrogen synthesis
assay text: Estrogen synthesis inhibition in rats (uterine weight and ovarian steroid concentrations)
Format: in vivo, female Wistar rats
settings: 30 ppm in feed (approximately 3 mg/kg/day), ovaries
Counter-ions that a name gives are not always drawn.
Mean Steroid Concentration, estradiol overview

>  <compound>
Clc1ccc(C(c2ccc(Cl)cc2)(c2cccnc2)n2ccnc2)cc1

>  <Mean Steroid Concentration, estradiol>
1.25 femtomoles per milligram of protein

$$$$
>  <compound>
CCOc1ccccc1C(C1CCCCC1)n1ccnc1 (stereo not drawn) [hydrochloride]

>  <Mean Steroid Concentration, estradiol>
1.30 femtomoles per milligram of protein

$$$$
>  <compound>
c1ccc(C(c2ccccc2)(c2ccccc2)n2ccnc2)cc1 [1-tritylimidazole]

>  <Mean Steroid Concentration, estradiol>
0.75 femtomoles per milligram of protein

$$$$
>  <compound>
Cl.Clc1cccc(Cn2ccnc2)c1Cl

>  <Mean Steroid Concentration, estradiol>
2.09 femtomoles per milligram of protein

$$$$
>  <compound>
Clc1ccc(C(c2ccc(Cl)cc2)n2cnnc2)cc1

>  <Mean Steroid Concentration, estradiol>
0.46 femtomoles per milligram of protein

$$$$
>  <compound>
O=[N+]([O-])c1ccc(C(c2ccc([N+](=O)[O-])cc2)n2ccnc2)cc1 [1-[bis(4-nitrophenyl)methyl]imidazole]

>  <Mean Steroid Concentration, estradiol>
0.92 femtomoles per milligram of protein

$$$$

###

target under test: aromatase (Rattus norvegicus)
Construct: ovarian microsomes are obtained from rats treated with pregnant mares serum gonadotropin
assay text: Aromatase inhibition in the rat ovarian microsome assay
settings: EC50: concentration required to achieve 50% inhibition of aromatase activity, substrate (androstenedione) concentration 0.1 μM
Where a name gives a salt, the structure may show the parent alone.
Decide using EC50 alone. Strictly below 1 µM: Satisfied. Equal to or above 1 µM: Not satisfied.

>  <compound>
FC(F)(F)c1cccc(C(c2ccc(Cl)cc2)(c2cccnc2)n2ccnc2)c1 (centres unmarked)

>  <qualitative label>
Satisfied

$$$$
>  <compound>
c1ccc2c(Cn3ccnc3)cccc2c1 [hydrochloride]

>  <qualitative label>
Satisfied

$$$$
>  <compound>
CC(c1ccccc1)n1ccnc1 (centres unmarked) [hydrochloride]

>  <qualitative label>
Not satisfied

$$$$
>  <compound>
Fc1ccccc1Cn1ccnc1

>  <qualitative label>
Not satisfied

$$$$
>  <compound>
CSc1ccc(C(c2ccccc2)(c2cccnc2)n2cncn2)cc1 (centres unmarked)

>  <qualitative label>
Satisfied

$$$$
>  <compound>
Cc1nccn1C(c1ccccc1)(c1ccccc1)c1ccccc1

>  <qualitative label>
Not satisfied

$$$$
>  <compound>
Clc1ccccc1C(c1cccnc1)(c1ccccc1Cl)n1cncn1

>  <qualitative label>
Satisfied

$$$$
>  <compound>
Clc1cccc(Cn2ccnc2)c1

>  <qualitative label>
Not satisfied

$$$$
>  <compound>
Clc1ccc(Cn2ccnc2)c(Cl)c1 [hydrochloride]

>  <qualitative label>
Satisfied

$$$$
>  <compound>
FC(F)(F)c1ccc(Cn2ccnc2)cc1

>  <qualitative label>
Satisfied

$$$$
>  <compound>
COc1ccc(C(c2ccccc2)(c2ccc(OC)cc2)n2ccnc2)cc1

>  <qualitative label>
Satisfied

$$$$

###

target under test: aromatase (Rattus norvegicus)
Construct: ovarian microsomes are obtained from rats treated with pregnant mares serum gonadotropin
assay text: Aromatase inhibition in the rat ovarian microsome assay
settings: EC50: concentration required to achieve 50% inhibition of aromatase activity, substrate (androstenedione) concentration 0.1 μM
Where a name gives a salt, the structure may show the parent alone.
Attribute: EC50
measurement kind: EC50 (µM)

>  <compound>
Clc1ccc(Cn2cncn2)cc1 [1-(4-chlorobenzyl)-1H--1,2,4-triazole]

>  <reading qualifier>
>

>  <numeric result>
5

$$$$
>  <compound>
c1ccc(C(c2ccccc2)n2cncn2)cc1 [1-diphenylmethyl-1H--1,2,4-triazole]

>  <reading qualifier>
>

>  <numeric result>
5

$$$$
>  <compound>
Clc1ccccc1C(c1cccnc1)(c1ccccc1Cl)n1ccnc1

>  <reading qualifier>
=

>  <numeric result>
0.305

$$$$
>  <compound>
Clc1ccc(C(c2ccccc2)(c2ccccc2)n2ccnc2)cc1

>  <reading qualifier>
=

>  <numeric result>
0.069

$$$$
>  <compound>
Fc1ccc(C(c2ccc(F)cc2)n2cncn2)cc1

>  <reading qualifier>
=

>  <numeric result>
0.094

$$$$
>  <compound>
FC(F)(F)c1ccccc1Cn1ccnc1 [hydrochloride]

>  <reading qualifier>
=

>  <numeric result>
1.75

$$$$
>  <compound>
FC(F)(F)c1ccc(C(c2ccc(Cl)cc2)(c2cncnc2)n2ccnc2)cc1 (centres unmarked)

>  <reading qualifier>
=

>  <numeric result>
0.03

$$$$
>  <compound>
Cc1ccc(Cn2ccnc2)cc1 [hydrochloride]

>  <reading qualifier>
=

>  <numeric result>
0.84

$$$$
>  <compound>
CSc1ccc(C(c2ccccc2)(c2cccnc2)n2ccnc2)cc1 (centres unmarked)

>  <reading qualifier>
<

>  <numeric result>
0.05

$$$$
>  <compound>
Cc1nccn1C(c1ccccc1)(c1ccccc1)c1ccncc1

>  <reading qualifier>
=

>  <numeric result>
0.12

$$$$
>  <compound>
CCOc1ccccc1Cn1ccnc1 [hydrochloride]

>  <reading qualifier>
=

>  <numeric result>
1.56

$$$$
>  <compound>
Clc1ccc(C(c2ccccc2)(c2ccc(Cl)cc2)n2ccnc2)cc1

>  <reading qualifier>
=

>  <numeric result>
0.11

$$$$
>  <compound>
Clc1ccccc1C(c1ccccc1Cl)n1cncn1

>  <reading qualifier>
>

>  <numeric result>
5

$$$$
>  <compound>
c1ccc(C2(n3ccnc3)CCCCC2)cc1 [1-(1-phenylcyclohexyl)-1H--imidazole]

>  <reading qualifier>
=

>  <numeric result>
0.093

$$$$
>  <compound>
Cc1nccn1C(c1ccccc1)(c1ccc(Cl)cc1)c1ccc(Cl)cc1

>  <reading qualifier>
=

>  <numeric result>
0.094

$$$$
>  <compound>
Clc1ccc(Cn2ccnc2)cc1 [1-(4-chlorobenzyl)-1H--imidazole]

>  <reading qualifier>
=

>  <numeric result>
0.14

$$$$
>  <compound>
COc1ccccc1Cn1ccnc1 [hydrochloride]

>  <reading qualifier>
=

>  <numeric result>
2.1

$$$$
>  <compound>
CC(C)(C)C(c1ccc(Cl)cc1)(c1cccnc1)n1ccnc1 (centres unmarked)

>  <reading qualifier>
=

>  <numeric result>
0.1

$$$$
>  <compound>
Fc1ccc(C(c2ccc(Br)cc2)n2cncn2)cc1 (centres unmarked)

>  <reading qualifier>
<

>  <numeric result>
0.05

$$$$
>  <compound>
Clc1ccc(C(c2ccc(Cl)cc2)(c2ccc(Cl)cc2)n2cncn2)cc1

>  <reading qualifier>
=

>  <numeric result>
0.42

$$$$
>  <compound>
CC(c1ccccc1Cl)n1ccnc1 (centres unmarked) [hydrochloride]

>  <reading qualifier>
=

>  <numeric result>
2.5

$$$$
>  <compound>
Clc1cc(Cl)cc(Cn2ccnc2)c1 [hydrochloride]

>  <reading qualifier>
=

>  <numeric result>
0.11

$$$$
>  <compound>
c1ccc(-c2ccc(Cn3ccnc3)cc2)cc1 [hydrochloride]

>  <reading qualifier>
=

>  <numeric result>
1.65

$$$$
>  <compound>
c1ccc(C(c2ccccc2)(c2ccccc2)n2ccnc2)cc1 [1-tritylimidazole]

>  <reading qualifier>
=

>  <numeric result>
0.032

$$$$
>  <compound>
CCOc1ccccc1C(C1CCCCC1)n1ccnc1 (centres unmarked) [hydrochloride]

>  <reading qualifier>
=

>  <numeric result>
0.022

$$$$
>  <compound>
C#CC(c1ccc(Cl)cc1)(c1ccc(Cl)cc1)n1ccnc1

>  <reading qualifier>
<

>  <numeric result>
0.05

$$$$
>  <compound>
CCOc1ccccc1C(c1ccccc1)n1ccnc1 (centres unmarked)

>  <reading qualifier>
=

>  <numeric result>
0.1

$$$$
>  <compound>
c1ccc(Cn2ccnc2)cc1 [1-benzylimidazole]

>  <reading qualifier>
=

>  <numeric result>
2.8

$$$$
>  <compound>
Fc1ccc(C(c2ccc(Cl)cc2)n2cncn2)cc1 (centres unmarked)

>  <reading qualifier>
<

>  <numeric result>
0.05

$$$$
